# methodSummary: non-covalent RecA intein splicing inhibitors, dose response, biochemical, cell-free, fluorescence, secondary screen (AID 449750)
Calls of active or inactive are those of the source. No rule for the calls is given here.
Possible outcomes: y (active), n (inactive)

>  <compound>
CNC(=O)/C(C#N)=C/c1c(N(Cc2ccccc2)Cc2ccccc2)nc2c(C)cccn2c1=O

>  <answerLabel>
y

$$$$
>  <compound>
COc1ccccc1NC(=O)C1=C(C)Nc2nnnn2C1c1ccncc1 (stereo not drawn)

>  <answerLabel>
n

$$$$
>  <compound>
CCCCCCCCCCOC(=O)Cn1c(COc2ccc(C)cc2)[n+](C)c2ccccc21

>  <answerLabel>
y

$$$$
>  <compound>
C#CCOc1ccc(OC)cc1C(c1c(C)[nH][nH]c1=O)c1c(C)[nH][nH]c1=O

>  <answerLabel>
y

$$$$
>  <compound>
Nc1nc(-c2ccco2)nn1C(=O)c1ccc(Cl)cc1

>  <answerLabel>
n

$$$$
>  <compound>
Cc1ccc(C(c2c(C)[nH][nH]c2=O)c2c(C)[nH][nH]c2=O)cc1[N+](=O)[O-]

>  <answerLabel>
y

$$$$
>  <compound>
Cc1ccc(NC(=O)CSc2ncnc3ccccc23)cc1S(=O)(=O)N1CCCCCC1

>  <answerLabel>
y

$$$$
>  <compound>
CCOC(=O)N1CCC(c2cc(=O)n(-c3ccccc3)[nH]2)CC1

>  <answerLabel>
y

$$$$
>  <compound>
CCCCCCCN(C(=O)CCl)c1ccccc1C

>  <answerLabel>
y

$$$$
>  <compound>
CCN1C(=O)c2c(C)nc3ccccc3c2C1=O

>  <answerLabel>
n

$$$$
>  <compound>
CC1(C)CC(CCNC(=O)CCl)(c2ccccc2)CCO1 (stereo not drawn)

>  <answerLabel>
y

$$$$
>  <compound>
Cn1nc(-c2ccccn2)nc2c(=O)n(C)c(=O)nc1-2

>  <answerLabel>
y

$$$$
>  <compound>
Cc1ccc(NC2=C(NC(=O)c3ccccc3)C(=O)c3ccccc3C2=O)cc1Cl

>  <answerLabel>
y

$$$$
>  <compound>
c1ccc(-c2ccc(C3CCCN3)cc2)cc1 (stereo not drawn)

>  <answerLabel>
n

$$$$
>  <compound>
O=C(Nc1nc(-c2ccccc2)cs1)c1ccccc1NS(=O)(=O)c1ccc(F)cc1

>  <answerLabel>
y

$$$$
>  <compound>
CC(C)(C)NC(=O)C(c1ccc(Cl)cc1)N(Cc1ccco1)C(=O)CCl (stereo not drawn)

>  <answerLabel>
y

$$$$
>  <compound>
CSc1nc(O)c(Nc2cccc(Cl)c2)c(=O)[nH]1

>  <answerLabel>
n

$$$$
>  <compound>
CCc1ccc(S(=O)(=O)Nc2cc(SCC(=O)O)c(O)c3ccccc23)cc1

>  <answerLabel>
y

$$$$
>  <compound>
O=C(CCl)NC(=O)NC12CC3CC(CC(C3)C1)C2

>  <answerLabel>
y

$$$$
>  <compound>
Cc1[nH]nc2c1C(c1ccc(-c3ccc(Cl)cc3)o1)C(C#N)=C(N)O2 (stereo not drawn)

>  <answerLabel>
y

$$$$
>  <compound>
Cc1[nH][nH]c(=O)c1C(c1ccc(O)c(Br)c1)c1c(C)[nH][nH]c1=O

>  <answerLabel>
y

$$$$
>  <compound>
COc1ccc(C2=NN(c3nc(C)cc(C)n3)C(=O)C2)cc1

>  <answerLabel>
y

$$$$
>  <compound>
COC(=O)c1sc(-c2ccc(Cl)cc2)cc1NC(=O)/C=C/C(=O)O

>  <answerLabel>
y

$$$$
